measured-on: CXCR3 I279A (Homo sapiens, UniProt P49682, I279A)
Construct: expressed in transfected cells; host or cells: murine pre-B cell line L1.2, transient transfection
Sequence (P49682 whole entry I279A): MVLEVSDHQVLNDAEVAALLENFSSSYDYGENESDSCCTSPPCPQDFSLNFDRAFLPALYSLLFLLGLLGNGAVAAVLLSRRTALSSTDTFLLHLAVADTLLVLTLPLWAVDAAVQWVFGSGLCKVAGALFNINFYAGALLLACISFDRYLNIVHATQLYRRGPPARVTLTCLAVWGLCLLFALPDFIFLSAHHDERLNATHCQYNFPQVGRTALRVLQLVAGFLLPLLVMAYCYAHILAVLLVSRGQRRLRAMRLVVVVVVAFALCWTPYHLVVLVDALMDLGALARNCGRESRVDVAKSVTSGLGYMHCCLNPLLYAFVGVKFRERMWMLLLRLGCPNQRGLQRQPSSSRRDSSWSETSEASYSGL
experiment-description: Chemotaxis assay, L1.2 transfectants migrating to CXCL11
Type: cell-based
condition-set: 30 nM CXCL11, read-out: IC50 chemotaxis (mean ± SEM)
metric: IC50 (µM)
Report as a plain number; the unit µM is understood.

Qu. // fetch CXCR3 I279A (Homo sapiens, UniProt P49682, I279A) IC50 for Cc1ccc(-c2ccc3c(c2)C=C(C(=O)Nc2ccc(C[N+](C)(C)C4CCOCC4)cc2)CCC3)cc1.[Cl-] [TAK-779]
Ans. 10.5
